- procedure-text: Solubility of the drug in vehicles (drug saturated solutions)
- Assay type: physicochemical
- assay-context: propylene glycol, organic solvent or mixture, thermodynamic from solid; Table 1; drug saturated solution; vehicle PG; read-out: Solubility
measured-metric: solubility

compound: Cc1ccc(-c2cc(C(F)(F)F)nn2-c2ccc(S(N)(=O)=O)cc2)cc1 [Celecoxib, celecoxib]
reported-result: 33.3 mg/mL

====

- procedure-text: Solubility of the drug in vehicles (drug saturated solutions)
- Type: physicochemical
- assay-context: aqueous with cosolvent or surfactant or cyclodextrin, thermodynamic from solid

molecule: CCC(=O)NS(=O)(=O)c1ccc(-c2c(-c3ccccc3)noc2C)cc1 [Parecoxib, parecoxib]
solubility, mg/mL: 386
